Source: paper PMC7659582

assay: Incidence of cardiac dysrhythmia in Truven Health MarketScan claims data; assay type: in vivo, human; conditions: Table 2; cardiac dysrhythmia, MarketScan 2009-2014
Incidence Rate per 1,000 Years: recorded values
Attribute Measured: Incidence Rate per 1,000 Years

Compound: CCC(=O)C(CC(C)N(C)C)(c1ccccc1)c1ccccc1 (centres unmarked)
Assay Result: 19.73 per 1,000 Years
//
Compound: CCOC(=O)N1CCC(=C2c3ccc(Cl)cc3CCc3cccnc32)CC1
Assay Result: 13.07 per 1,000 Years
//
Compound: CCCCc1oc2ccccc2c1C(=O)c1cc(I)c(OCCN(CC)CC)c(I)c1
Assay Result: 162.2 per 1,000 Years
//
Compound: CCCNCC(O)COc1ccccc1C(=O)CCc1ccccc1 (centres unmarked)
Assay Result: 135.17 per 1,000 Years
//
Compound: CN(C)CC(c1ccc(O)cc1)C1(O)CCCCC1 (centres unmarked)
Assay Result: 8.26 per 1,000 Years
//
Compound: CC(C)NCC(O)c1ccc(NS(C)(=O)=O)cc1 (racemic)
Assay Result: 124.65 per 1,000 Years
//
Compound: Cc1nc2n(c(=O)c1CCN1CCC(c3noc4cc(F)ccc34)CC1)CCCC2
Assay Result: 18.47 per 1,000 Years
//
Compound: C=C[C@H]1C[N@@]2CC[C@H]1C[C@@H]2[C@@H](O)c1ccnc2ccc(OC)cc12
Assay Result: 87.75 per 1,000 Years
//
Compound: Cc1cccc(C)c1OCC(C)N (centres unmarked)
Assay Result: 280.45 per 1,000 Years
//
Compound: CN(CCOc1ccc(NS(C)(=O)=O)cc1)CCc1ccc(NS(C)(=O)=O)cc1 [DOFETILIDE]
Assay Result: 157.58 per 1,000 Years
//
Compound: Cc1nc2n(c(=O)c1CCN1CCC(c3noc4cc(F)ccc34)CC1)CCCC2O (centres unmarked)
Assay Result: 10.13 per 1,000 Years
